Entries and their measured hERG current change (%, negative = inhibition) at 10uM follow.
- ASSAYED TARGET: human ether-à-go-go-related gene (hERG) potassium channel (human)
- Sequence (Q12809 whole entry, looked up): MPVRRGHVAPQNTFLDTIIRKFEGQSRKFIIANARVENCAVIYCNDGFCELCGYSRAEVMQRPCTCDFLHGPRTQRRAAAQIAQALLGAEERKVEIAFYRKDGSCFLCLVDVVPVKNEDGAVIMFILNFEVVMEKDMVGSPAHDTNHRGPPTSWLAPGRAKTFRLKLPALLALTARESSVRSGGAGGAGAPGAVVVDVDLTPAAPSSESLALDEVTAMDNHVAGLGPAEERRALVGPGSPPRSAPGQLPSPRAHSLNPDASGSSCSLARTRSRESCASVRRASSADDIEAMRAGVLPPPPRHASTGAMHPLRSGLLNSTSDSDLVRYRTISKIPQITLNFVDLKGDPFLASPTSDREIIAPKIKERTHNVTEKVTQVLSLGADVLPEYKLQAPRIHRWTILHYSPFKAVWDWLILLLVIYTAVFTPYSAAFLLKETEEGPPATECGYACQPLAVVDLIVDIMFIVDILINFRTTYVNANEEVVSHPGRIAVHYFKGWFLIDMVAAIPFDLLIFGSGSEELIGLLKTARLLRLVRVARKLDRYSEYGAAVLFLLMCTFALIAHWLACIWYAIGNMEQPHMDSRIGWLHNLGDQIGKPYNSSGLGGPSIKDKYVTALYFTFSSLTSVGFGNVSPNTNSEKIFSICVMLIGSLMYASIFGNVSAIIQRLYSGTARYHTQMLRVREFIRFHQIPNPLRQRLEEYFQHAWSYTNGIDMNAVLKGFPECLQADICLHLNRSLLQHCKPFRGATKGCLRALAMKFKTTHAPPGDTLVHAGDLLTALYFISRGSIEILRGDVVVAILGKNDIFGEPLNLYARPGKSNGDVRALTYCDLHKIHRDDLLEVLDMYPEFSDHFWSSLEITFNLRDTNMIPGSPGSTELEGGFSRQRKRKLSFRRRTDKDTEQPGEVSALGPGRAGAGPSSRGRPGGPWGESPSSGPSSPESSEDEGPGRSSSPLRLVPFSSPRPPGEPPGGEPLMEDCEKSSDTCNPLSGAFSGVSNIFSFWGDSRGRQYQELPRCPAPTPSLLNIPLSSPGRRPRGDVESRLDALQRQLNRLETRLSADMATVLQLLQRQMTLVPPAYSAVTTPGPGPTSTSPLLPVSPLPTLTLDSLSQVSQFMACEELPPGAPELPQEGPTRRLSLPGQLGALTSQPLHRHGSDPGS
- TEST: primary screen, population patch clamp on CHO cells stably expressing hERG; higher = less effect of the substance
The campaign covered roughly 310,000 compounds. About 14,000 (4.5%) showed an effect of 50% or more. The effect is printed as a negative number. The full list was thinned out, with strong results kept by preference.
Answer in %, number only, no unit symbol.

See these solved cases before continuing.
# COMPOUND, ENDPOINT VALUE
records = [
    ("COc1ccc(/C=C/C(=O)OC(C)CN2CCCCC2)cc1.Cl (stereo not shown)", -26.2),
    ("CC(CN1CCOCC1)OC(=O)/C=C/c1ccccc1.Cl (stereo not shown)", 10.1),
    ("CC(CN1CCCCC1)OC(=O)/C=C/c1ccccc1.Cl (stereo not shown)", -71),
    ("O=[N+]([O-])/C(C(Cl)=C(Cl)Cl)=C(/NC1CC1)Sc1ccccc1", 7.59),
    ("COc1cc(/C=N/Nc2ccc([N+](=O)[O-])cc2S(=O)(=O)N2CCOCC2)cc(OC)c1OC", -3.33),
    ("CC(CN1CCOCC1)OC(=O)C(C)(c1ccccc1)c1ccccc1 (stereo not shown)", -8.05),
    ("O=C(COC(=O)/C=C/c1ccc(Br)o1)NC1CCCCC1", 11),
    ("CC(CN1CCCC1)OC(=O)C(c1ccccc1)c1ccccc1.Cl (stereo not shown)", -42.2),
    ("Cc1cc(C)nc(SC2c3cccc4cccc(c34)C2NS(=O)(=O)c2ccccc2)n1 (stereo not shown)", -4.8),
]

query: // query hERG current change (%, negative = inhibition) at 10uM value for entry "O=C(O)CCc1ccc(-c2ccc(F)cc2)n1NC(=O)c1ccco1"
result: 8.01

====

- ASSAYED TARGET: human ether-à-go-go-related gene (hERG) potassium channel (human);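 note: peak tail current of the secondary pulse compared with the same well before compound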
- TEST: primary screen, population patch clamp on CHO cells stably expressing hERG; higher = less effect of the substance
Hit rate of the full screen: of about 310,000 compounds, about 14,000 (4.5%) showed an effect of 50% or more. Effects have a minus sign here. Shown is part of a subset that was picked to be rich in strong results.
Item-by-item account of hERG current change (%, negative = inhibition) at 10uM

# COMPOUND, ENDPOINT VALUE
data = [
    ("Cc1cccn2cc(CNc3ccccc3)nc12", "-4.15%"),
    ("CCN(C(=O)C1CCN(c2nc(-c3ccc(OC)cc3)no2)CC1)c1ccccc1", "-24.7%"),
    ("CC(C)NC(=O)COC(=O)c1cccc(NS(=O)(=O)/C=C/c2ccccc2)c1", "-18%"),
    ("c1cnc2ccc(-c3ccc4ncccc4c3)cc2c1", "-5.61%"),
    ("COCCNC(=O)c1ccc(C)c(NC(=O)C2=C(C)OCCS2)c1", "21.1%"),
]

query: Param item = "Cc1ccc(C)c(C(=O)Nc2cc(C)nn2-c2nc(C)cc(C)n2)c1" ; retrieve measured hERG current change (%, negative = inhibition) at 10uM.
result: 3.98%

query: Requested read-out: hERG current change (%, negative = inhibition) at 10uM. Entry: Cc1ccc(-n2cccn2)c(CN2CCCC(C(=O)c3sccc3C)C2)c1 (stereo not drawn)
result: -85.4%

query: Reported hERG current change (%, negative = inhibition) at 10uM for "CN1CCN(C2=C(Cl)C(=O)N(c3ccc(Cl)c(Cl)c3)C2=O)CC1" : what is it?
result: 14.1%

====

Quick reference: hERG current change (%, negative = inhibition) at 10uM of the listed items.
- ASSAYED TARGET: human ether-à-go-go-related gene (hERG) potassium channel (human);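 note: peak tail current of the secondary pulse compared with the same well before compound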
- TEST: primary screen, population patch clamp on CHO cells stably expressing hERG; higher = less effect of the substance
The whole screen tested about 310,000 compounds, of which about 14,000 (4.5%) showed an effect of 50% or more. Effects have a minus sign here. This excerpt belongs to a sample that is enriched for strong results.

Use the examples below as a reference point.
# MOLECULE, ENDPOINT VALUE
measured = [
    ("C=CCn1c(SCC(=O)N2CCN(c3ccc(F)cc3)CC2)nnc1-c1cccs1", "-68.9%"),
    ("CCOC(=O)c1cc(-c2ccccc2)sc1NC(=O)CC", "1.19%"),
    ("C=CCn1c(SCC(=O)N2CCN(c3ccc(F)cc3)CC2)nnc1-c1ccco1", "-70.2%"),
    ("CCCCCCCNC(=O)C1(CC2CC(c3cccc(Br)c3)=NO2)CCNCC1 (stereo not shown)", "-70.3%"),
    ("Cc1nc(Cc2nnc(SCC(=O)N(C)c3ccccc3)o2)cs1", "15.9%"),
]

Continue with the molecule presented below.
query: Which hERG current change (%, negative = inhibition) at 10uM reading was recorded for the molecule "CCOC(=O)N1CCN(C(=O)Cn2nc(C)n3nc(-c4ccc(OC)cc4)cc3c2=O)CC1" ?
result: 13.4%

====

Listed next: entries and their corresponding hERG current change (%, negative = inhibition) at 10uM.
- ASSAYED TARGET: human ether-à-go-go-related gene (hERG) potassium channel (human);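 note: peak tail current of the secondary pulse compared with the same well before compound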
- TEST: primary screen, population patch clamp on CHO cells stably expressing hERG; higher = less effect of the substance
- Experimental: Briefly, Chinese hamster ovary (CHO) cells stably expressing the hERG channel were dislodged from tissue culture flasks and dispensed into PPC plates. […] During the recording, background leak currents were estimated by a 100 ms step to -80 mV from an initial holding potential of -70 mV and subtracted from the subsequent current measurement. The campaign was conducted in two phases using slight differences in recording protocol. […]
About 14,000 (4.5%) of roughly 310,000 compounds showed an effect of 50% or more. Effects have a minus sign here. The entries come from a sample that favours strong results as a whole.
Answer with a number only, understood to be in %.

Reference set, count: 3
# MOLECULE, VALUE UNITS, ENDPOINT VALUE
records = [
    ("Cc1cc(Cl)ccc1NC(=O)CSc1nnc(Cc2cccs2)n1Cc1ccco1", "%", -45.3),
    ("Cc1ccc(SCCOCCN2CCc3ccccc3C2)cc1", "%", -60.5),
    ("Cc1ccc(Cl)c(OCCN2CCc3ccccc3C2)c1.Cl", "%", -9.17),
]

query: Name the recorded hERG current change (%, negative = inhibition) at 10uM for Cc1ccc(SCCOCCN2CC(C)OC(C)C2)cc1.Cl (centres unmarked) .
result: -12.4

query: Entry "NS(=O)(=O)c1ccc(CCNC(=O)Nc2ccc(Cl)cc2)cc1" has what hERG current change (%, negative = inhibition) at 10uM?
result: -9.65

query: Record request: hERG current change (%, negative = inhibition) at 10uM value, item Cc1ccc(NC(=O)CCN2C(=O)C3CCCCC3C2=O)c(O)c1 (centres unmarked)
result: 11.9

query: What value of measured hERG current change (%, negative = inhibition) at 10uM is listed for "Cl.c1ccc(SCCOCCN2CCOCC2)cc1" ?
result: 14.3

====

Overview of recorded hERG current change (%, negative = inhibition) at 10uM for various molecules
- ASSAYED TARGET: human ether-à-go-go-related gene (hERG) potassium channel (human);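 note: peak tail current of the secondary pulse compared with the same well before compound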
- TEST: primary screen, population patch clamp on CHO cells stably expressing hERG; higher = less effect of the substance
- Experimental: Briefly, Chinese hamster ovary (CHO) cells stably expressing the hERG channel were dislodged from tissue culture flasks and dispensed into PPC plates. […] During the recording, background leak currents were estimated by a 100 ms step to -80 mV from an initial holding potential of -70 mV and subtracted from the subsequent current measurement. The campaign was conducted in two phases using slight differences in recording protocol. […]
Among all 310,000 compounds or so, about 14,000 (4.5%) showed an effect of 50% or more. Effects have a minus sign here. The sample holds strong results, similar compounds and a random draw of the others, so the mix is not that of the screen.
Numbers only here, please. The scale is %.

Study these solved cases before continuing.
# MOLECULE, ENDPOINT VALUE
records = [
    ("CN1CCN(C(=O)COc2ccc(N(C)S(=O)(=O)c3ccc(F)cc3)cc2)CC1", -4.56),
    ("Clc1ccccc1CN1CCC(Cc2ccccc2)CC1", -12.1),
    ("CC(=O)Nc1ccc(S(=O)(=O)N2CCSC2c2ccc(C)cc2)cc1 (stereo not shown)", 2.9),
]

query: May I ask what hERG current change (%, negative = inhibition) at 10uM has been recorded for "O=S(=O)(c1cccc(C(F)(F)F)c1)N1CCC(CO)(CCCc2ccccc2)CC1" ?
result: -6.59

query: What hERG current change (%, negative = inhibition) at 10uM value was documented for this molecule, CCOC(=O)C1CCCN(C(=O)COc2ccc(N(C)S(=O)(=O)c3ccc(F)cc3)cc2)C1 (stereo not shown) ?
result: -66.5

query: GET /values?readout=hERG current change (%, negative = inhibition) at 10uM&item= "OCC1(CCCc2ccccc2)CCN(Cc2cc(F)ccc2F)CC1"
result: -69.5

query: Quick one: hERG current change (%, negative = inhibition) at 10uM of "CCOC(=O)C1CCN(C(=O)COc2ccc(N(C)S(=O)(=O)c3ccc(C)cc3)cc2)CC1" ?
result: -57.7

query: What measured hERG current change (%, negative = inhibition) at 10uM goes with "COc1ccc(N2CCN(Cc3nc(-c4ccccc4)no3)CC2)cc1" ?
result: 8.23

query: Item under review: CCOC(=O)C1CCCN(C(=O)COc2ccc(S(=O)(=O)N(CC)c3ccccc3)cc2)C1 (stereo not shown) . Reported hERG current change (%, negative = inhibition) at 10uM?
result: -51.8

query: Item CCOC(=O)C1CCCN(C(=O)COc2ccccc2O)C1 (stereo not shown) has what recorded hERG current change (%, negative = inhibition) at 10uM?
result: -1.94

The measurements presented in this section are drawn from paper PMC4336329.
